system: Escherichia coli NIHJ
# MIC listing for each entry below
// note: answer is a bare numeric in µg/mL

The reported Escherichia coli NIHJ MIC of NCCC(O)C(=O)NC1CC(N)C(OC2OC(CO)CCC2N)C(O)C1OC1OC(CO)C(O)C(N)C1O (stereo not shown) [AHB-DDKC] is 12.5

The reported Escherichia coli NIHJ MIC of NCCC(O)C(=O)NC1CC(N)C(OC2OC(CO)C(O)CC2N)C(O)C1OC1OC(CO)C(O)C(N)C1O (stereo not shown) [AHB-DKC] is 6.25

The reported Escherichia coli NIHJ MIC of NCC[C@H](O)C(=O)N[C@@H]1C[C@H](N)[C@@H](O[C@H]2O[C@H](CN)[C@@H](O)[C@H](O)[C@H]2O)[C@H](O)[C@H]1O[C@H]1O[C@H](CO)[C@@H](O)[C@H](N)[C@H]1O [Amikacin, reference compound] is 0.78

The reported Escherichia coli NIHJ MIC of NCCC(O)C(=O)NC1CC(N)C(OC2OC(CO)C(O)C(O)C2N)C(O)C1OC1OC(CO)C(O)C(N)C1O (stereo not shown) [AHB-KC] is 6.25

Measured values drawn from patent US4140849A for this set.
